STUDY SYSTEM: T1, human PD-1^ECD-hFc protein (Immunogen A) (human, UniProt Q15116 25-167)
T1 construct: Biotinylated for the Octet assay; also called PD-1-hFc; hPD-1^ECD-hFc; not shown: human IgG Fc fragment (hFc)
T1 sequence (Q15116 25-167): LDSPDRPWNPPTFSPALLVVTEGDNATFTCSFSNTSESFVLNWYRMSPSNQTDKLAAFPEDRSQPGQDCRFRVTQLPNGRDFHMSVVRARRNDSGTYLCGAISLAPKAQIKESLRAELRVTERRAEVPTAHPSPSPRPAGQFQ
PROTOCOL DETAILS: ELISA, coated human PD-1ECD-hFc; antibody 0.1 nM
OUTCOME MEASURE: OD450 nm
No unit in the answer, please; the number alone is enough.

A selection of reference data follows.
binder="chimeric anti-PD-1 antibody 21G8F11 (antibody, V domains shown, Purified from hybridoma of Harbour H2L2 mice: human variable regions, rat constant regions) VH: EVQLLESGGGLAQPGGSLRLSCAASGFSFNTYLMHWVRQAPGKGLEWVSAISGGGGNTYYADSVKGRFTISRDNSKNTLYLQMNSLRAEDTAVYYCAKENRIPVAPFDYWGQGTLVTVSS VL: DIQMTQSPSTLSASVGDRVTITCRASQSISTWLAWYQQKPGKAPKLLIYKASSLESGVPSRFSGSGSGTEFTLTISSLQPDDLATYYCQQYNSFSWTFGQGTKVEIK" measured_value=1.77
binder="chimeric anti-PD-1 antibody 226C3A7 (antibody, V domains shown, Purified from hybridoma of Harbour H2L2 mice: human variable regions, rat constant regions) VH: QVQLQQSGPGLVNPSQTLSLTCAISGDSVSSNSGAWNWIRQSPSRGLEWLGRTYYRSKWYNDYGISVQSRITINPDTSKNHFSLQLNSVTPEDTAVYYCARDPYYYGSGSYFDYWGQGTLVTVSS VL: EIVMTQSPATLSVSPGERVTLSCRASLSVNSNLAWYQQKPGQAPRLLIYDTSTRATGVPARFSGSGSGTEFTLTISSLQSEDFAVYYCQQYHYWPLTFGGGTKVEIK" measured_value=2.54
binder="chimeric anti-PD-1 antibody 32B5C7 (antibody, V domains shown, Purified from hybridoma of Harbour H2L2 mice: human variable regions, rat constant regions) VH: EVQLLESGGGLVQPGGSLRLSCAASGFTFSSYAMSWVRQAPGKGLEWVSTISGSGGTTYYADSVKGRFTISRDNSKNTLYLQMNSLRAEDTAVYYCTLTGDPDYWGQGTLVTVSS VL: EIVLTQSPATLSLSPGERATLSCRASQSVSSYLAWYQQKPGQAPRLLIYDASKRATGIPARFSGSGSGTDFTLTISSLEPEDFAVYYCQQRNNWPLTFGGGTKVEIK" measured_value=2.11

# ---- query binder ----
So what does the record say about OD450 nm for chimeric anti-PD-1 antibody 76G5B3 (antibody, V domains shown, Purified from hybridoma of Harbour H2L2 mice: human variable regions, rat constant regions) VH: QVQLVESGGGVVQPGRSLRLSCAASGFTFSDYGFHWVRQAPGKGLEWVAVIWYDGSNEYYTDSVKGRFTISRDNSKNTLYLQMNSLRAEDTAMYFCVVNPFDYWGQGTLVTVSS VL: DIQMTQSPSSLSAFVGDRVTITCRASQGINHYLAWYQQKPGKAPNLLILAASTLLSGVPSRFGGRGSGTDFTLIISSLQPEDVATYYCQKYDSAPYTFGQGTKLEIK ?
2.43
